In this section, each of the compounds is paired with its reported Ki.
# SYSTEM: CDK9/T1 (Homo sapiens)
# PROCEDURE_DETAILS: ADP Glo Kinase assay CDK9/T1
# Format: biochemical
# PARTICULARS: CDK9T1; read-out: CDK inhibition, Ki (μM) CDK9T1
Supply the numeric figure in µM, leaving out any unit text.

Use these answered entries as a reference point.
COMPOUND | SYSTEM | MEASUREMENT
Cc1cnc(NC2CCC(N(C)C)CC2)nc1-c1cnc2ccc(Nc3cncc(F)c3)cn12 (stereo not shown) [Compound 120] | CDK9/T1 (Homo sapiens) | 0.015
Cc1cnc(N[C@H]2CC[C@@H](N3CCC3)CC2)nc1-c1cnc2ccc(-c3ccccc3)cn12 [Compound 136] | CDK9/T1 (Homo sapiens) | 2.77
Cc1cnc(N[C@H]2CC[C@H](NCC(N)=O)CC2)nc1-c1cnc2ccc(Nc3cncnc3)cn12 [Compound 153] | CDK9/T1 (Homo sapiens) | 0.01
Cc1cnc(N[C@H]2CC[C@H](NS(C)(=O)=O)CC2)nc1-c1cnc2ccc(Nc3cncnc3)cn12 [Compound 126] | CDK9/T1 (Homo sapiens) | 0.111
N[C@H]1CC[C@H](Nc2ncc(Cl)c(-c3cnc4ccc(-c5ncccc5F)cn34)n2)CC1 [Compound 40] | CDK9/T1 (Homo sapiens) | 0.014

Task: Please provide the recorded Ki for CN1CCC(Nc2ncc(F)c(-c3cnc4ccc(Nc5cncnc5)cn34)n2)CC1 [Compound 149] , tested on CDK9/T1 (Homo sapiens).
Result: 0.178

Task: // same read-out, input: COC(=O)CN[C@H]1CC[C@H](Nc2ncc(F)c(-c3cnc4ccccn34)n2)CC1 [Compound 15]
Result: 0.014

Task: // same read-out, input: Cc1cnc(N[C@H]2CC[C@H](N3CCCC3)CC2)nc1-c1cnc2ccc(-c3ccccc3)cn12 [Compound 140]
Result: 0.53

Task: // same read-out, input: N[C@H]1CC[C@H](Nc2ncc(F)c(-c3cnc4ccc(-c5ncccc5F)cn34)n2)CC1 [Compound 27]
Result: 0.003

Task: // same read-out, input: CS(=O)(=O)N[C@H]1CC[C@H](Nc2ncc(Cl)c(-c3cnc4ccc(Br)cn34)n2)CC1 [Compound 17]
Result: 0.062

Task: // same read-out, input: N[C@H]1CC[C@H](Nc2ncc(F)c(-c3cnc4ccc(C(F)(F)F)cn34)n2)CC1 [Compound 3]
Result: 0.006

Task: // same read-out, input: N[C@H]1CC[C@H](Nc2ncc(F)c(-c3cnc4ccc(NCc5ccc(F)cc5)cn34)n2)CC1 [Compound 7]
Result: 0.006

Task: // same read-out, input: Cc1cnc(N[C@H]2CC[C@H](N)CC2)nc1-c1cnc2cc(-c3cccnc3)ccn12 [Compound 54]
Result: 0.11

Task: // same read-out, input: N[C@H]1CC[C@H](Nc2ncc(Cl)c(-c3cnc4ccc(-c5ccc(N6CCNCC6)nc5)cn34)n2)CC1 [Compound 84]
Result: 0.033

Task: // same read-out, input: COCCN[C@H]1CC[C@@H](Nc2ncc(C)c(-c3cnc4ccc(-c5ccccc5)cn34)n2)CC1 [Compound 130]
Result: 1.12

Task: // same read-out, input: C[C@]12C[C@]3(C)C[C@](O)(C1)C[C@](Nc1ncc(F)c(-c4cnc5ccc(Nc6cncnc6)cn45)n1)(C2)C3 [Compound 111]
Result: 0.108

----------
In this section, each of the compounds is paired with its reported Ki.
# SYSTEM: CDK9/T1 (Homo sapiens, UniProt P50750)
# Sequence (P50750 whole entry): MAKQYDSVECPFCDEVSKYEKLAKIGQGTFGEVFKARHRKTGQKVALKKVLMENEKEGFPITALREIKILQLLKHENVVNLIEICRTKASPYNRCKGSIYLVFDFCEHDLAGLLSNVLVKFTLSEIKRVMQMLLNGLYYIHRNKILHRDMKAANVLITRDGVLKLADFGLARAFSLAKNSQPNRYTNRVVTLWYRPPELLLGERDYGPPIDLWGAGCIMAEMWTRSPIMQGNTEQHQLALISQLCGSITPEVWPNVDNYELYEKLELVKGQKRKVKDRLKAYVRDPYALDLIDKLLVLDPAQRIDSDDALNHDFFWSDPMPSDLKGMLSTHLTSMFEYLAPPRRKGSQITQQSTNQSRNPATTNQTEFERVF
# Sequence (O60563 whole entry partner): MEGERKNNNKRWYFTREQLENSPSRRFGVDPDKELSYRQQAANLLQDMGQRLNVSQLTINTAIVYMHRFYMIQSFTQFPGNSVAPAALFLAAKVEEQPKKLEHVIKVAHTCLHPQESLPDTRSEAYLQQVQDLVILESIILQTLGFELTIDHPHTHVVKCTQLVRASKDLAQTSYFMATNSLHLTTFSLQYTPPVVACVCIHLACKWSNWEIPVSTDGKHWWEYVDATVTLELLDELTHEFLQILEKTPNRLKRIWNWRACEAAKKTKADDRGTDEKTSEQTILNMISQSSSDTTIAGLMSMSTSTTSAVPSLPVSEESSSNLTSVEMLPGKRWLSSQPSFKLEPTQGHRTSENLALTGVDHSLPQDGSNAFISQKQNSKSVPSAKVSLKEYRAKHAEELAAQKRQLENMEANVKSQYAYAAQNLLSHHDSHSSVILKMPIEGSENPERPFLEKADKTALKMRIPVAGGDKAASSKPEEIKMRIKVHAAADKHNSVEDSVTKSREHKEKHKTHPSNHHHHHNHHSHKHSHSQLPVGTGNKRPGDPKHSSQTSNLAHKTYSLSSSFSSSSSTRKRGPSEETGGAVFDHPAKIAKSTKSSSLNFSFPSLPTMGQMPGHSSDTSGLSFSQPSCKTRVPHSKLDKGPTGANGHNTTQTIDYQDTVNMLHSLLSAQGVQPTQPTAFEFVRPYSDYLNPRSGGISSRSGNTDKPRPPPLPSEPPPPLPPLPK
# PROCEDURE_DETAILS: ADP Glo Kinase assay CDK9/T1
# Type: biochemical
# PARTICULARS: CDK9T1; read-out: CDK inhibition, Ki (μM) CDK9T1

Use these answered entries as a reference point.
COMPOUND | Ki
Cc1cnc(NC2CCOCC2)nc1-c1cnc2ccc(Nc3cncnc3)cn12 [Compound 104] | 0.155 µM
Cc1cnc(N[C@H]2CC[C@H](N)CC2)nc1-c1cnc2ccc(Nc3ccc(F)nc3)cn12 [Compound 123] | 0.011 µM

Now for a further compound.
Task: For the compound shown here, Cc1cnc(N[C@H]2CC[C@H](N)CC2)nc1-c1cnc2cc(C(F)(F)F)c(Br)cn12 [Compound 114] , give the reported Ki.
Result: 0.005 µM

----------
# SYSTEM: T1, CDKs and other kinases (Homo sapiens, UniProt P24941)
# T1 construct: other: CDK2A; residual activity (%) at 10 μM CDK2A; compound at 10 μM
# PROCEDURE_DETAILS: Radiometric kinase assay (Eurofins Pharma Discovery or Reaction Biology Corporation Kinase Profiler)
# Format: biochemical
# PARTICULARS: CDK2A; read-out: CDK inhibition, Ki (μM) CDK2A
# Protocol: Eurofins Pharma Discovery or Reaction Biology Corporation Kinase Profiler services were used to measure inhibition of CDKs and other kinases by radiometric assay. Inhibition of CDK4/D1, CDK6/D3 and CDK9/T1 were also determined in-house using ADP Glo Kinase assays (Promega Corporation, Madison, USA). […] Luminescence was measured using an EnVision Multilabel plate reader (PerkinElmer, Buckinghamshire, UK). […]
VALUE_TYPE: Ki

COMPOUND | Ki
COC(=O)CN1CCC(Nc2ncc(F)c(-c3cnc4ccccn34)n2)CC1 [Compound 23] | 0.155 µM
CNC1CCC(Nc2ncc(C)c(-c3cnc4ccc(Nc5cncnc5)cn34)n2)CC1 (stereo not shown) [Compound 109] | 0.18 µM
Cc1cnc(N[C@H]2CC[C@H](N)CC2)nc1-c1cnc2ccc(N(C)c3cccnc3)cn12 [Compound 122] | 1.15 µM
COc1ccc(-c2ccc3ncc(-c4nc(N[C@H]5CC[C@H](N)CC5)ncc4Cl)n3c2)cc1 [Compound 82] | 0.22 µM
Cc1cnc(N2CCC3(CCNC3=O)CC2)nc1-c1cnc2ccc(-c3ccccc3)cn12 [Compound 125] | 3.94 µM
Cc1cnc(N[C@H]2CC[C@H](N)CC2)nc1-c1cnc2ccc(Nc3cnccn3)cn12 [Compound 70] | 1.42 µM

Now for a further compound.
Task: For the compound shown here, Cc1cnc(N[C@H]2CC[C@H](N)CC2)nc1-c1cnc2ccc(-c3ccccc3)cn12 [Compound 10] , give the reported Ki.
Result: 0.43 µM

----------
# SYSTEM: CDK4/D1 (Homo sapiens, UniProt P11802)
# Sequence (P11802 whole entry): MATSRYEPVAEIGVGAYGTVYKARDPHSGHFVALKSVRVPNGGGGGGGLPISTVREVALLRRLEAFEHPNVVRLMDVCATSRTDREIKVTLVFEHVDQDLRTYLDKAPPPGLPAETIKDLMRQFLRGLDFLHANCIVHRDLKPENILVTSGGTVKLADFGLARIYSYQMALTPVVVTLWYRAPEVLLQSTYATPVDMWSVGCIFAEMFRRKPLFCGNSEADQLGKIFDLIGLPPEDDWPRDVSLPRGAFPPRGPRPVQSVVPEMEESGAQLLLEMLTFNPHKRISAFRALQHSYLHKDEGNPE
# Sequence (P24385 whole entry partner): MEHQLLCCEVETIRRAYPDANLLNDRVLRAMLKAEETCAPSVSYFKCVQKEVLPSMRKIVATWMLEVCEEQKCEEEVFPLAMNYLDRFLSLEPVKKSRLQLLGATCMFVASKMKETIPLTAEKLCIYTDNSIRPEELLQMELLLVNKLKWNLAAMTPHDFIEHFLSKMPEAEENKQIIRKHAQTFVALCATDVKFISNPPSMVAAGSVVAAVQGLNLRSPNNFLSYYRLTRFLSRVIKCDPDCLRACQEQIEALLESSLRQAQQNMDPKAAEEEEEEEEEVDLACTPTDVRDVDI
# PROCEDURE_DETAILS: ADP Glo Kinase assay CDK4/D1
# Format: biochemical
# PARTICULARS: CDK4D1; compound at 10 μM; read-out: residual activity (%) at 10 μM CDK4D1
VALUE_TYPE: remaining activity at 10 µM (%)
Supply the numeric figure in %, leaving out any unit text.

Use these answered entries as a reference point.
MOLECULE | remaining activity at 10 µM, %
Cc1cnc(NC2CCOCC2)nc1-c1cnc2ccc(Nc3cncnc3)cn12 [Compound 104] | 70
Cc1cnc(N[C@H]2CC[C@H](N)CC2)nc1-c1cnc2ccc(Nc3cccnn3)cn12 [Compound 71] | 35
N[C@H]1CC[C@H](Nc2ncc(Cl)c(-c3cnc4cc(-c5ccccc5)ccn34)n2)CC1 [Compound 77] | 5

Task: For the molecule shown here, Cc1cnc(N[C@H]2CC[C@H](N)CC2)nc1-c1cnc2ccc(C(F)(F)F)cn12 [Compound 9] , give the reported remaining activity at 10 µM.
Result: 45

----------
# SYSTEM: CDK9/T1 (Homo sapiens, UniProt P50750)
# PROCEDURE_DETAILS: ADP Glo Kinase assay CDK9/T1
# Assay type: biochemical
# PARTICULARS: CDK9T1; read-out: CDK inhibition, Ki (μM) CDK9T1
VALUE_TYPE: Ki (µM)
Supply the numeric figure in µM, leaving out any unit text.

Use these answered entries as a reference point.
COMPOUND | SYSTEM | UNIT_STRING | Ki
COc1cccc(-c2ccc3ncc(-c4nc(N[C@H]5CC[C@H](N)CC5)ncc4C)n3c2)c1 | CDK9/T1 (Homo sapiens, UniProt P50750) | µM | 0.069
Cc1cnc(N[C@H]2CC[C@H](N)CC2)nc1-c1cnc2ccc(-c3ccc(CN4CCOCC4)cc3)cn12 | CDK9/T1 (Homo sapiens, UniProt P50750) | µM | 0.41
Cc1cnc(N[C@H]2CC[C@H](N)CC2)nc1-c1cnc2cc(C(F)(F)F)c(-c3ccccc3)cn12 | CDK9/T1 (Homo sapiens, UniProt P50750) | µM | 0.149
N[C@H]1CC[C@H](Nc2ncc(Cl)c(-c3cnc4ccc(NC(=O)c5ccccc5)cn34)n2)CC1 | CDK9/T1 (Homo sapiens, UniProt P50750) | µM | 0.073
Cc1cnc(NC2CCC(NCC(F)(F)F)CC2)nc1-c1cnc2ccc(Nc3cncnc3)cn12 (stereo not shown) | CDK9/T1 (Homo sapiens, UniProt P50750) | µM | 0.205

Task: For the compound shown here, "Fc1cnc(N[C@H]2CC[C@H](NC3CCOCC3)CC2)nc1-c1cnc2ccc(-c3ccccc3)cn12" , give the reported Ki.
Result: 0.016
